protein stability index listing for selected sequences.
MEASUREMENT_NOTES: protein stability index of a GFP-peptide fusion (yeast GPS) (PSI 1-4); higher = more stable; sorted into four equal gates, so the index is relative within each strain
ASSAY_CONDITIONS: ubr1∆

Some entries whose results are on file:
VQRTMLELLNQLDGFSS [RPT5]
2.99
VNECIAQSHQRFNAKVS [CDC53]
2.3
EPKKDKESIVLPTVGFD [YOR098C/NUP1]
2.92
IDYKLRVLTQDGRVYIG [SMB1]
2.5
MSQAVNAKKRVFKTHSY [RPS15]
2.63

FGRKKRKGGPATAEKLP [RPT2] has a reported protein stability index of 3.34

FLWPFKLSNPSGGWGVP [RPL7A] has a reported protein stability index of 3.36

DYITEAVFKIVLQPLLP [SNU114] has a reported protein stability index of 1.51

SGRNIHLAVVCVDDNSK [SSN2] has a reported protein stability index of 2.96

LRELSCCINAAFLALVD [RRP46] has a reported protein stability index of 2.65

GKLAKPRQLHNTHWGLV [RPB2] has a reported protein stability index of 2.94
